- target-system: c-Met (cytoplasmic domain) (Homo sapiens)
- Construct: 10 ng/mL c-Met (cytoplasmic domain, Invitrogen Corporation #PV3143); purchased Invitrogen Corporation PV3143
- Sequence (P08581 956-1390 limits assumed): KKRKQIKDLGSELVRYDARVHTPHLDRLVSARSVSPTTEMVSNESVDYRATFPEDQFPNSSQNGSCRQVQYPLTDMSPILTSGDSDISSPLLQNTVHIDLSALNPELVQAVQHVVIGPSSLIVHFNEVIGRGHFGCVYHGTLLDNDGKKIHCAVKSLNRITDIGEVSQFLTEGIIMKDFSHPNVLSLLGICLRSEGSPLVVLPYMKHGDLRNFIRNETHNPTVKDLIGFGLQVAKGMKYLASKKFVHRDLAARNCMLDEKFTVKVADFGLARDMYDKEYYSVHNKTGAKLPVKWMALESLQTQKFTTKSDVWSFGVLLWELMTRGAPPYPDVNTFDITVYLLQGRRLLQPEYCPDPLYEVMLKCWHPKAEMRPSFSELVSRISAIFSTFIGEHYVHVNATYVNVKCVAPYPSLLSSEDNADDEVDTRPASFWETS
- method-description: c-Met Kinase Assay (same methods as for ALK, with modifications)
- Format: biochemical
- test-conditions: 1 μM ATP (Km level), 10 ng/mL c-Met; read-out: cMet Activity (c-Met kinase inhibition, IC50 class)
measurement-kind: IC50

Examples with answers:
COc1cccc(C(=O)NCCC#N)c1Nc1nc(Nc2ccc3c(c2)CCCC(=O)N3C)ncc1Cl [Example 1062]    1 to 10 µM
COCCOC(=O)c1ccccc1Nc1nc(Nc2cc3c(cc2OC)CCC(NCCO)CC3)ncc1Cl (centres unmarked) [Example 1093]    > 10 µM
CNC(=O)CN1CCc2cc(Nc3ncc(Cl)c(Nc4ccccc4OC)n3)c(OC)cc2CC1 [Example 1135]    > 10 µM
CNC(=O)c1sccc1Nc1nc(Nc2ccc3c(c2)NC(=O)C(NC(C)=O)CC3(C)C)ncc1Cl (centres unmarked) [Example 1291]    < 0.1 µM
COc1cc2c(cc1Nc1ncc(Cl)c(Nc3ccccc3-n3cccn3)n1)CCC(NCCO)CC2 (centres unmarked) [Example 1091]    1 to 10 µM
COCCN1CCc2cc(Nc3ncc(Cl)c(N[C@H]4[C@@H](C(N)=O)[C@@H]5C=C[C@H]4C5)n3)c(OC)cc2CC1 [Example 1315]    > 10 µM

Query: Please give the documented IC50 of C#CCNC(=O)c1cccc(F)c1Nc1nc(Nc2ccc3c(c2)NC(=O)CCC3)ncc1Cl [Example 1404]
Reply: 0.1 to 1 µM

Query: Given COc1cc2c(cc1Nc1ncc(Cl)c(NC3(C(=O)OC(C)C)CCCC3)n1)CCN(CC(=O)N(C)C)CC2 [Example 1202] , respond with its IC50.
Reply: > 10 µM

Query: Look up and report measured IC50 for this entry: CNC(=O)c1cccc(F)c1Nc1nc(Nc2ccc3c(c2)C(=O)NCCO3)ncc1Cl [Example 1222]
Reply: 0.1 to 1 µM

Query: Assign IC50 to the following record: CNC(=O)c1cccc(F)c1Nc1nc(Nc2ccc3c(c2)CCN(C[C@@H](OC)C(F)(F)F)CC3)ncc1Cl [Example 1361]
Reply: < 0.1 µM

Query: Look up IC50 of COc1cc2c(cc1Nc1ncc(Cl)c(N[C@H]3[C@@H](C(N)=O)[C@@H]4C=C[C@H]3C4)n1)CCC(NCCO)CC2 (single isomer, unassigned) [Example 1096] and report it.
Reply: > 10 µM
